# EXPERIMENTAL_CONDITIONS: in 2-methyl-1-butanol, 298.15 K
ATTRIBUTE_MEASURED: solubility (mole fraction)
Lab note: jot the number down without any unit.

For O=C(O)c1ccc(Cl)c(Cl)c1 the compound record lists solubility (mole fraction) as 0.0183

All figures here come from BigSolDB 2.1.
